- Test system: NCI-H522 lung
- protocolNotes: NCI-60 one-dose screen, 48 h (100 = growth as untreated, 0 = no growth, -100 = all killed)
- experimentalParameters: 10 µM unless noted
Compounds without any hit were thinned out: in the full panel of roughly 83,000, 20% have a hit.
parameterMeasured: growth (%)
Numbers only, in %.

# compound, growth [%]
measured = [
    ("COc1cc([N+](=O)[O-])cc(OC)c1OC", 83.8),
    ("CCCC(CCC)(C(N)=O)C(=O)O", 97.2),
    ("CN(C)CCCn1c(=O)c2cc([N+](=O)[O-])ccc2c2cnc3[nH]ccc3c21", 17.9),
    ("CCSCC1CC(O)(c2ccccc2)C(c2ccccc2)C(c2ccc(F)cc2)O1 (stereo not given)", 10.6),
]

For each of the compounds below, note its growth.
1. O=C(Nc1ccc(Br)cc1)Nc1cccc(Br)c1
2. COc1cnc2c(c1)C(=O)c1c-2n(CCCN2CCCC2)c(=O)c2cc(Cl)ccc12
3. O=S(=O)(Cc1ccc(Cl)cc1Cl)c1ccc(Cl)cc1
4. CN1C(=O)N(C)C2C1NN=c1s/c(=C\c3ccc(C(F)(F)F)cc3)c(=O)n12 (stereo not given)
5. CC(C)OC1OC(OC(C)C)C(OC(C)C)OC1OC(C)C (stereo not given)
6. O=C1CCCN1C1CCN2CCCc3cccc1c32 (stereo not given)

OUT:
1: -28.5; 2: 4.02; 3: -5.62; 4: 2.74; 5: 70.9; 6: 84.2

For each of the compounds below, note its growth.
1. C/C(=N\Nc1ccc([N+](=O)[O-])cn1)c1ccc(N)cc1
2. O=C1/C(=C/c2ccccc2)SC(=Nc2ccccc2)N1Nc1ccccc1
3. CCOC(=O)Nc1ccc2nc(N3CCCCCC3)sc2c1
4. Cc1cc(-c2ccc(N=Nc3c(S(=O)(=O)O)cc4cc(S(=O)(=O)O)cc(O)c4c3O)c(C)c2)ccc1N=Nc1c(S(=O)(=O)O)cc2cc(S(=O)(=O)O)cc(O)c2c1O
5. CC(C)(C)OC[C@@H]1N=C(c2ccc(Br)cc2)Nc2nc3ccccn3c2C1=O

OUT:
1. 85.8
2. -5.53
3. -12.7
4. 99.3
5. 33.4

---

- Tested on: CCRF-CEM leukemia
- protocolNotes: NCI-60 one-dose screen, 48 h (100 = growth as untreated, 0 = no growth, -100 = all killed)
- experimentalParameters: 10 µM unless noted
This is part of a sample that, as a whole, favours compounds with a hit. Of some 83,000 tested, about 20% had one in any assay.
Provide the reported growth of each item.
Give bare numbers, in %.

These recorded examples may help you get a feel for the data.
# compound, testedTarget, growth, %
measured = [
    ("CCOC(=O)C1=C(C)NC(=S)NC1c1ccccc1 (stereo not given)", "CCRF-CEM leukemia", 109),
    ("C#Cc1cccc(Nc2nc3cc([N+](=O)[O-])ccc3nc2Nc2ccc(O)cc2)c1", "CCRF-CEM leukemia", 6.32),
    ("CC(=O)Cc1ccccn1", "CCRF-CEM leukemia", 99.5),
]

For each of the compounds below, note its growth.
1. O=C1Nc2ccccc2/C1=C\c1nc(C2CCN(S(=O)(=O)c3ccc(F)cc3)CC2)n2ccccc12
2. COc1ccc2c(c1)C1=NN(C(=O)CO)[C@H](c3ccc(OC(F)(F)F)cc3)[C@@H]1CC2

OUT:
95.1
129

---

- Tested on: A549/ATCC NSCLC
- protocolNotes: NCI-60 one-dose screen, 48 h (100 = growth as untreated, 0 = no growth, -100 = all killed)
- experimentalParameters: 10 µM unless noted
Compounds without any hit were thinned out: in the full panel of roughly 83,000, 20% have a hit. Activity calls are given as the source filed them. Rule for the calls: active = growth percent below 10; inactive = the rest.
parameterMeasured: growth

# compound, growth
rows = [
    ("CCOC(=O)C1C(=O)C=C(c2ccccc2)CC1c1sc(N(C)Cc2ccccc2)nc1Cl (configuration not stated)", "83.8% (inactive)"),
    ("CC(C)OC1OC(OC(C)C)C(OC(C)C)OC1OC(C)C (configuration not stated)", "92.4% (inactive)"),
    ("COc1cc(/C=C2\\CN(C(=O)OC(C)(C)C)C/C(=C\\c3ccc(O)c(OC)c3)C2=O)ccc1O", "73.2% (inactive)"),
    ("COc1ccc(/C(C)=N/NC(=O)c2ccc(S(C)(=O)=O)cc2)cc1OC", "96.5% (inactive)"),
]

For each of the compounds below, note its growth.
1. CC(=O)CC(c1ccc([N+](=O)[O-])cc1)c1c(O)c2ccccc2oc1=O (configuration not stated)
2. CN1C(=O)NC(Cc2c[nH]c3c(Cl)cccc23)C1=O (configuration not stated)
3. N/C(=N\OC(=O)c1ccccc1)C(Cc1ccccc1)C(=O)NOC(=O)c1ccccc1 (configuration not stated)

OUT:
1: 95.7% (inactive); 2: 102% (inactive); 3: -60.3% (active)

For each of the compounds below, note its growth.
1. CC(C)=CC[C@@H]1CC2(CC=C(C)C)C(=O)C(OC3(C(=O)c4ccccc4)C(=O)C4(CC=C(C)C)C[C@@H](CC=C(C)C)C(C)(C)C(CC=C(C)C)(C4=O)C3=O)(C(=O)c3ccccc3)C(=O)C(CC=C(C)C)(C2=O)C1(C)C (some centres not stated)
2. CC(C)(C)[Si](C)(C)OC1[C@@H](O[Si](C)(C)C(C)(C)C)[C@@H](CNC(=O)NC(=O)NC(=O)CI)O[C@H]1n1cnc2c(NC(=O)Nc3ccccc3)ncnc21 (some centres not stated)

OUT:
6% (active)
65.5% (inactive)

For each of the compounds below, note its growth.
1. Cc1ccc(NC(=O)c2sc3nc4c(cc3c2N)C(=O)CCC4)cc1Cl
2. CCOC(OCC)c1cnc2nc(NC(C)=O)[nH]c(=O)c2n1
3. CCN1C(=O)/C(=C/N2N=C(c3ccc(Cl)cc3)CC2c2ccc(OC)cc2)SC1=S (configuration not stated)
4. C=C(COC(C)=O)[C@H]1CC/C(C)=C/CC/C(C)=C/CC[C@@]2(C)O[C@H]2C1
5. CCCCCCCCCCCCNC(=O)N[C@H](C(=O)N[C@H]1/C=C/CCNC(=O)/C=C/[C@H](C)NC1=O)C(C)C
6. CC[C@]1(O)C[C@H]2CN(CCc3c([nH]c4ccccc34)C(C(=O)OC)(c3cc4c(cc3OC)N(C)[C@H]3[C@@](O)(C(=O)OC)[C@H](OC(C)=O)[C@]5(CC)[C@@H]6C[C@@H]6CN6CC[C@]43[C@@H]65)C2)C1 (some centres not stated)

OUT:
1: 101% (inactive); 2: 99.7% (inactive); 3: 74.3% (inactive); 4: 105% (inactive); 5: 10.5% (inactive); 6: 19.8% (inactive)

For each of the compounds below, note its growth.
1. COc1nccc2c(Sc3ccccc3)nc(N)nc12
2. CCCCCCCCCCCCCCCCCC1=NCCN1CCO
3. CN1CCCN(CCNc2nccc(-c3c(-c4cccc(O)c4)nc4sccn34)n2)S1(=O)=O
4. COc1ccc2nc(C)cc(Sc3nc4ccccc4s3)c2c1
5. C[C@H](NC(=O)c1snnc1C1CC1)c1c(F)cccc1Cl
6. CCN(CC)c1ccc(/C=C2/NC(=O)NC2=O)cc1

OUT:
1: 104% (inactive); 2: 64.2% (inactive); 3: 45.8% (inactive); 4: 35.7% (inactive); 5: 101% (inactive); 6: 59.1% (inactive)

---

Provide the reported growth of each item.
- Tested on: CAKI-1 renal
- protocolNotes: NCI-60 one-dose screen, 48 h (100 = growth as untreated, 0 = no growth, -100 = all killed)
- experimentalParameters: 10 µM unless noted
Compounds without any hit were thinned out: in the full panel of roughly 83,000, 20% have a hit. Calls of active or inactive are those of the source. Rule for the calls: active = growth percent below 10; inactive = the rest.

These recorded examples may help you get a feel for the data.
# structure, growth
data = [
    ("CCn1c(=O)c(C(=O)NCCCO)c(O)c2ccccc21", "116% (inactive)"),
    ("O=C(Nc1cccc(-n2ccc3c(NC(=O)c4ccccc4)nccc32)c1)c1ccc(Cl)c(Cl)c1", "-71.7% (active)"),
    ("CC(C)[C@@H]1C=C2CC[C@H]3[C@](C)(CN)CCC[C@]3(C)[C@H]2CC1", "78.7% (inactive)"),
]

For each of the compounds below, note its growth.
1. CCOc1cc(/C=N\NC(=O)C[N+](C)(C)C)ccc1O
2. CCCNCCC(C)=O
3. Fc1cc(-c2cnc3nonc3n2)c(Cl)cc1Cl
4. Cc1ccc(Nc2cccc3ccccc23)cc1

OUT:
1. 95.9% (inactive)
2. 106% (inactive)
3. 85% (inactive)
4. 63.3% (inactive)

---

- Test system: RPMI-8226 leukemia
- protocolNotes: NCI-60 one-dose screen, 48 h (100 = growth as untreated, 0 = no growth, -100 = all killed)
- experimentalParameters: 10 µM unless noted
This is part of a sample that, as a whole, favours compounds with a hit. Of some 83,000 tested, about 20% had one in any assay. Activity calls are given as the source filed them. How the source made its calls: active means growth percent below 10; inactive means the rest.
parameterMeasured: growth

These recorded examples may help you get a feel for the data.
# compound, parameterMeasured, result
data = [
    ("Cc1nn(-c2cccc(Cl)c2)c(C)c1N=Nc1ccc(Br)cc1", "growth", "95.4% (inactive)"),
    ("CS(=O)(=O)c1ccc(C(=O)N/N=C/c2cccc3ccccc23)cc1", "growth", "87.7% (inactive)"),
    ("CCOC(=O)c1cc(N)nc2ccccc12", "growth", "106% (inactive)"),
]

For each of the compounds below, note its growth.
1. O=c1nc(-c2ccccc2)c2cc(-c3ccc(N4CCOCC4)cc3)ccc2[nH]1
2. CCOC(=O)Nc1ccc2nc(Sc3ccc(Cl)cc3)sc2c1
3. Cc1cc2nc(CN)[nH]c2cc1C

OUT:
1: 51.3% (inactive); 2: 21.5% (inactive); 3: 96.5% (inactive)

For each of the compounds below, note its growth.
1. C=C(C)[C@@H]1CC[C@]2(C(=O)O)CC[C@]3(C)[C@H](CC[C@@H]4[C@@]5(C)C[C@@H](CC#Cc6ccc(C(C)=O)s6)[C@H](O)C(C)(C)[C@@H]5CC[C@]43C)[C@@H]12
2. CCCCCCCCCCCCCCCCCC1=NCCN1CCO
3. O=C1c2cccc3cccc(c23)C(=O)N1CCCCCCCCCCN1C(=O)c2cccc3cccc(c23)C1=O

OUT:
["40% (inactive)", "78.9% (inactive)", "108% (inactive)"]
